Reported Emax is given for each of the following compounds.
# Study System: Hs_FPR2 (Homo sapiens)
# Construct: expressed in transfected cells
# Sequence (P25090 1-351): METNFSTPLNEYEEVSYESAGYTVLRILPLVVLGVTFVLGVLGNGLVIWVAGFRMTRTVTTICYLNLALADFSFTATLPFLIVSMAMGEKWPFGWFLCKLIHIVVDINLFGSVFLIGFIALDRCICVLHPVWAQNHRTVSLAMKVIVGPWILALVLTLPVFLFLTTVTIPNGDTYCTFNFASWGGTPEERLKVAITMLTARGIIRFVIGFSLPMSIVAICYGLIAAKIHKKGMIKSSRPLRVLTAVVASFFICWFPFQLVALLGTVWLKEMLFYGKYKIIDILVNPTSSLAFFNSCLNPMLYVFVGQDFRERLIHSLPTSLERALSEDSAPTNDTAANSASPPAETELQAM
# Test Protocol: Internalization of FLAG-tagged receptors by flow cytometry
# Assay type: cell-based
# Set-up: dose or concentration left out as unconfirmed
Where a SMILES comes first, the peptide text is derived from it. The star is where a group is joined. For = O=C*

Consider the worked cases shown below.
[[record]]
compound = "CC[C@H](C)[C@H](NC(=O)[C@H](CC(C)C)NC(=O)[C@H](CCCCN)NC(=O)[C@H](CCSC)NC(=O)[C@H](CC(C)C)NC(=O)[C@@H]1CCCN1C(=O)[C@H](CC(N)=O)NC(=O)[C@@H](NC(=O)[C@H](CCCCN)NC(=O)[C@H](CCCNC(=N)N)NC(=O)[C@H](CCSC)NC(=O)[C@@H]1CCCN1C(=O)[C@@H](NC(=O)[C@H](CCSC)NC=O)[C@@H](C)O)[C@@H](C)CC)C(=O)N[C@@H](CC(N)=O)C(=O)O [MCT-2, Formyl-MTPMRKINPLMKLIN] (For-MTPMRKINPLMKLIN-OH)"
experimental_readout = "Emax"
observed = "63.3%"

[[record]]
compound = "CSCC[C@H](NC=O)C(=O)N[C@@H](CC(C)C)C(=O)N[C@@H](Cc1ccccc1)C(=O)N[C@@H](CCCCN)C(=O)O [fMLFK, fMet-Leu-Phe-Lys] (For-MLFK-OH)"
experimental_readout = "Emax"
observed = "99.9%"

[[record]]
compound = "COc1cc(F)c([C@@H]2CNC(=O)[C@H]2NC(=O)Nc2ccccc2)c(F)c1"
experimental_readout = "Emax"
observed = "112%"

[[record]]
compound = "CSCC[C@H](NC(=O)[C@H](Cc1ccc(O)cc1)NC(=O)[C@H](CCCCN)NC(=O)[C@@H](N)Cc1c[nH]c2ccccc12)C(=O)N[C@H](C(=O)N[C@H](CCSC)C(N)=O)C(C)C"
experimental_readout = "Emax"
observed = "97.5%"


Consider the additional compound presented here.
Task: Can you look up the measured Emax of CSCC[C@H](NC=O)C(=O)N[C@@H](CC(C)C)C(=O)N[C@@H](Cc1ccccc1)C(=O)O for me?
Output: 0.343%
